# Assay Summary: Cmax in mouse at 1 mg/kg, po by cassette dosing assay
# Assay type: ADME, organism-based
# Design: dose 1 mg/kg, route oral
# Condition Description: in vivo
Value Type: Cmax (nM)
Use nM as the unit, but write only the number.

Answer with the recorded Cmax for the compound listed here: Nc1nccc(/C=C/c2c(-c3ccccc3)nc3sccn23)n1
290

* * *

# Assayed System: Vascular endothelial growth factor receptor 1 (Homo sapiens)
# Assay Summary: Inhibition of recombinant Flt1 expressed in baculovirus-Sf21 system
pIC50: −log10 of the molar value.
Value Type: pIC50

1) Nc1nccc(/C=C/c2c(-c3ccccc3)ncn2CCN2CCCC2)n1 :: < 4.00

Now let's try a different one.
State measured pIC50 of the molecule Nc1nccc(/C=C/c2c(-c3ccccc3)nc3ccccn23)n1 with Vascular endothelial growth factor receptor 1 (Homo sapiens).
4.10

* * *

pIC50: recorded values
# Assayed System: Angiopoietin-1 receptor (Homo sapiens, UniProt Q02763)
# Sequence (Q02763 whole entry): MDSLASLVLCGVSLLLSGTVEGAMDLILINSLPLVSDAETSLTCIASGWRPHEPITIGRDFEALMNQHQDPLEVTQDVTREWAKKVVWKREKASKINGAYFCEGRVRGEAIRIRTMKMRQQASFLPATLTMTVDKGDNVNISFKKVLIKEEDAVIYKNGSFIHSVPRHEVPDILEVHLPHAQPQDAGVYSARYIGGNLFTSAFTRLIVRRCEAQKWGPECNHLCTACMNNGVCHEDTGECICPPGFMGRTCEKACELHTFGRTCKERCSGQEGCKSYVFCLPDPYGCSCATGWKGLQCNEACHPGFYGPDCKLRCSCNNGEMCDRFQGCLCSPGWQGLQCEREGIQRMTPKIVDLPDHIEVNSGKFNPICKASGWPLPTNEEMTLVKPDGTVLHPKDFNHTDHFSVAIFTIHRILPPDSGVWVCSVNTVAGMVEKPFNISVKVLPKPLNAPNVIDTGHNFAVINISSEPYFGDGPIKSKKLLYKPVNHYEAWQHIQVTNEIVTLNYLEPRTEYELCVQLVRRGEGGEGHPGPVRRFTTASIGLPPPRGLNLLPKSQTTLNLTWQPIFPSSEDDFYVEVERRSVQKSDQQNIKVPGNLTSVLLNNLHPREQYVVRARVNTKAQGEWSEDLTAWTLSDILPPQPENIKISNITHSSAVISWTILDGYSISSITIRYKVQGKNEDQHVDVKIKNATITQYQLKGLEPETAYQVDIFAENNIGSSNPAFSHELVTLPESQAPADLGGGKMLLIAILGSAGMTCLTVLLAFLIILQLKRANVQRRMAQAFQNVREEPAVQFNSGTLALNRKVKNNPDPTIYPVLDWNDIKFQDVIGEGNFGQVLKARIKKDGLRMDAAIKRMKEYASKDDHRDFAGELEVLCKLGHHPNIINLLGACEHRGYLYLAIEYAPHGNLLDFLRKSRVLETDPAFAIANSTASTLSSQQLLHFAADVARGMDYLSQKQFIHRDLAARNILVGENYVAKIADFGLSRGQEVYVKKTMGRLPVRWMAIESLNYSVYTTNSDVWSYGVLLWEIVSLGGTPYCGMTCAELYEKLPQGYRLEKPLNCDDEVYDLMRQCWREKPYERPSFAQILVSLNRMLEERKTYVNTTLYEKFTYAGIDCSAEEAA
# Assay Summary: Inhibition of human Tie2 autophosphorylation expressed in CHOK1 cells by ELISA
# Type: cell-based, CHO-K1
Answer as the number alone; pIC50 is minus log10 of concentration in mol/L.

1. Nc1nccc(/C=C/c2[nH]cnc2-c2ccccc2)n1 :: 6.43

Now let's try a different one.
Answer with the recorded pIC50 for the compound listed here: Cn1cnc(-c2ccccc2)c1/C=C/c1ccnc(N)n1
6.47

* * *

# Assayed System: UniProtKB P17948
# Assay Summary: Inhibition of recombinant Flt1 expressed in baculovirus-Sf21 system
IC50: recorded values
Use µM as the unit, but write only the number.

Please review the following examples before continuing.
1. Nc1nccc(/C=C/c2[nH]cnc2-c2ccccc2)n1 :: 68
2. Clc1nccc(/C=C/c2c(-c3ccccc3)nc3sccn23)n1 :: 66

Answer with the recorded IC50 for the compound listed here: Cn1cnc(-c2ccccc2)c1C#Cc1ccnc(N)n1
36

Answer with the recorded IC50 for the compound listed here: CC(=O)Nc1nccc(/C=C/c2c(-c3ccccc3)nc3sccn23)n1
100

Answer with the recorded IC50 for the compound listed here: CC(C)(C)C(=O)Nc1nccc(/C=C/c2c(-c3ccccc3)nc3sccn23)n1
96

Answer with the recorded IC50 for the compound listed here: Nc1nccc(/C=C/c2c(-c3ccccc3)nc3n2CCS3)n1
23

* * *

pIC50: recorded values
# Assayed System: Vascular endothelial growth factor receptor 2 (Homo sapiens)
# Assay Summary: Inhibition of recombinant KDR expressed in baculovirus-Sf21 system
Answer as the number alone; pIC50 is minus log10 of concentration in mol/L.

Answer with the recorded pIC50 for the molecule listed here: Nc1nccc(/C=C/c2c(-c3ccccc3)nc3n2CCS3)n1
5.49

Answer with the recorded pIC50 for the molecule listed here: Nc1cc(/C=C/c2c(-c3ccccc3)nc3sccn23)ncn1
4.46

* * *

pIC50: recorded values
# Assayed System: Angiopoietin-1 receptor (Homo sapiens)
# Assay Summary: Inhibition of recombinant Tie2 expressed in baculovirus-Sf21 system
Answer as the number alone; pIC50 is minus log10 of concentration in mol/L.

1) Clc1nccc(/C=C/c2c(-c3ccccc3)nc3sccn23)n1 :: 4.26

Now let's try a different one.
Answer with the recorded pIC50 for the compound listed here: Cn1c(-c2ccccc2)c(/C=C/c2ccnc(N)n2)c2ccccc21
4.08

* * *

# Assayed System: Vascular endothelial growth factor receptor 2 (Homo sapiens)
# Assay Summary: Inhibition of recombinant KDR expressed in baculovirus-Sf21 system
Value Type: pIC50
Answer as the number alone; pIC50 is minus log10 of concentration in mol/L.

Please review the following examples before continuing.
1) Cn1cnc(/C=C/c2ccnc(N)n2)c1-c1ccccc1 :: 5.11
2) Nc1nccc(/C=C/c2c(-c3ccccc3)nc3sccn23)n1 :: 5.15
3) Nc1nccc(/C=C/c2c(-c3ccccc3)ncn2Cc2ccccc2)n1 :: 5.15

Answer with the recorded pIC50 for the compound listed here: CNc1nccc(/C=C/c2c(-c3ccccc3)nc3sccn23)n1
4.77

Answer with the recorded pIC50 for the compound listed here: CC(C)(C)C(=O)Nc1nccc(/C=C/c2c(-c3ccccc3)nc3sccn23)n1
4.89

Answer with the recorded pIC50 for the compound listed here: Nc1nccc(/C=C/c2c(Cl)nc3sccn23)n1
4.51

* * *

# Assay Summary: Fraction unbound ligand in mouse
# Format: ADME, organism-based
# Condition Description: in vivo
Value Type: fraction unbound
Provide a numeric answer; units are not to be included.

Answer with the recorded fraction unbound for the compound listed here: Cn1cnc(-c2ccccc2)c1/C=C/c1ccnc(N)n1
0.125

* * *

# Assay Summary: Fraction unbound ligand in rat
# Assay type: ADME
Value Type: fraction unbound
Provide a numeric answer; units are not to be included.

Answer with the recorded fraction unbound for the compound listed here: Cn1cnc(-c2ccccc2)c1/C=C/c1ccnc(N)n1
0.099

* * *

# Assay Summary: Cmax in mouse at 2 mg/kg by cassette dosing assay
# Assay type: ADME, organism-based
# Parameters: dose 2 mg/kg
# Condition Description: in vivo
Value Type: Cmax
Don't forget the unit after the number, please.

Answer with the recorded Cmax for the compound listed here: Cn1cnc(-c2ccccc2)c1/C=C/c1ccnc(N)n1
460 nM

* * *

# Tested on: HUVEC
# Assay Summary: Inhibition of growth factor-stimulated proliferation of HUVEC
# Assay type: functional, cell-based
# Condition Description: Homo sapiens
pIC50: −log10 of the molar value.
Value Type: pIC50

Answer with the recorded pIC50 for the molecule listed here: Cn1cnc(-c2ccccc2)c1/C=C/c1ccnc(N)n1
< 5.00

* * *

# Test system: Mus musculus
# Assay Summary: AUC in mouse at 2 mg/kg by cassette dosing assay
# Assay type: ADME, organism-based, Plasma
# Set-up: dose 2 mg/kg
# Condition Description: in vivo
Value Type: AUC (µM·h)
Use µM·h as the unit, but write only the number.

Answer with the recorded AUC for the compound listed here: Cn1cnc(-c2ccccc2)c1/C=C/c1ccnc(N)n1
0.58

* * *

# Assayed System: Vascular endothelial growth factor receptor 1 (Homo sapiens, UniProt P17948)
# Sequence (P17948 whole entry): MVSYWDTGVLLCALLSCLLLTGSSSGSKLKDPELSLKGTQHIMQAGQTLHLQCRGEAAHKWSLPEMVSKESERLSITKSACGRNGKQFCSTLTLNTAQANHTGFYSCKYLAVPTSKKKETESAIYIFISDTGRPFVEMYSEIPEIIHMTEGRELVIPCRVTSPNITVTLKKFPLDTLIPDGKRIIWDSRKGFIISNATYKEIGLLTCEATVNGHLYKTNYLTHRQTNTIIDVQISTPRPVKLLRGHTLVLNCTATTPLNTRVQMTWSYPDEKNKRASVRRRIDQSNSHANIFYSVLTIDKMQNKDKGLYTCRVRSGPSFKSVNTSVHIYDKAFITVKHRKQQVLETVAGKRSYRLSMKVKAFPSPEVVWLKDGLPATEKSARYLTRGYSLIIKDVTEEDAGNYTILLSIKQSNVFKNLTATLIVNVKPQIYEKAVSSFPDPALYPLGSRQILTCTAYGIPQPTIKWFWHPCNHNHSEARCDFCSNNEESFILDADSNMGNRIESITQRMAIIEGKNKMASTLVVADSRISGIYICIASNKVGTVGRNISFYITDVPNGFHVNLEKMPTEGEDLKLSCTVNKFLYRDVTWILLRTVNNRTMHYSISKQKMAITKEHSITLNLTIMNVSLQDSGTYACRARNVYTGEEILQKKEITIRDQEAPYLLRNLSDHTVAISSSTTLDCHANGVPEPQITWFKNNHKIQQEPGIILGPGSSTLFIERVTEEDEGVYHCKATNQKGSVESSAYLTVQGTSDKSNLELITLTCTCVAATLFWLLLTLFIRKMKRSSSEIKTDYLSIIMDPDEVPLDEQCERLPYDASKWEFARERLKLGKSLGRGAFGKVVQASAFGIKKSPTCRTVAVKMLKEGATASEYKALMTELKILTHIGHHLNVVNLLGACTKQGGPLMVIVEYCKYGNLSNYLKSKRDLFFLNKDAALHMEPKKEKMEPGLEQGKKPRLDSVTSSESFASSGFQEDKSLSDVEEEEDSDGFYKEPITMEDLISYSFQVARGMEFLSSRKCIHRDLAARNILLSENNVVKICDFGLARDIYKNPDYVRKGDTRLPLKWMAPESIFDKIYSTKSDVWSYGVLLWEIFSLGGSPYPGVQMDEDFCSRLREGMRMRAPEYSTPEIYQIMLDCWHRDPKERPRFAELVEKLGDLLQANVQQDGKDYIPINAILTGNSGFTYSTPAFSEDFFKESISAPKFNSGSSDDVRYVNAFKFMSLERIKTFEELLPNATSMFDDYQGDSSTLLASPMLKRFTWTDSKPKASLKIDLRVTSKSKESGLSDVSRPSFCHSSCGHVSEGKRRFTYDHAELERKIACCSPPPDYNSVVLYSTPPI
# Assay Summary: Inhibition of recombinant Flt1 expressed in baculovirus-Sf21 system
IC50: recorded values

Please review the following examples before continuing.
1) Cn1cnc(-c2ccccc2)c1C(=O)Nc1ccnc(N)n1 :: > 100 µM
2) Cn1cnc(-c2ccccc2)c1Nc1ccnc(N)n1 :: > 100 µM
3) Nc1nccc(/C=C/c2c(-c3ccccc3)ncn2Cc2ccccc2)n1 :: 31 µM

State measured IC50 of the molecule Cn1cnc(-c2ccccc2)c1C1CC1c1ccnc(N)n1 (stereo not given) with Vascular endothelial growth factor receptor 1 (Homo sapiens, UniProt P17948).
> 100 µM

State measured IC50 of the molecule Cn1cnc(-c2ccccc2)c1/C=C/c1ccnc(N)n1 with Vascular endothelial growth factor receptor 1 (Homo sapiens, UniProt P17948).
34 µM

State measured IC50 of the molecule C(=C\c1c(-c2ccccc2)nc2sccn12)/c1ccncn1 with Vascular endothelial growth factor receptor 1 (Homo sapiens, UniProt P17948).
> 100 µM

State measured IC50 of the molecule Nc1nccc(/C=C/c2c(-c3ccccc3)nc3sccn23)n1 with Vascular endothelial growth factor receptor 1 (Homo sapiens, UniProt P17948).
30 µM

State measured IC50 of the molecule Cn1cnc(-c2ccccc2)c1CNc1ccnc(N)n1 with Vascular endothelial growth factor receptor 1 (Homo sapiens, UniProt P17948).
> 100 µM

State measured IC50 of the molecule Nc1nccc(/C=C/c2ccsc2-c2ccccc2)n1 with Vascular endothelial growth factor receptor 1 (Homo sapiens, UniProt P17948).
> 100 µM

State measured IC50 of the molecule Nc1nccc(/C=C/c2sccc2-c2ccccc2)n1 with Vascular endothelial growth factor receptor 1 (Homo sapiens, UniProt P17948).
> 100 µM

State measured IC50 of the molecule CNc1nccc(/C=C/c2c(-c3ccccc3)nc3sccn23)n1 with Vascular endothelial growth factor receptor 1 (Homo sapiens, UniProt P17948).
84 µM

State measured IC50 of the molecule Nc1cc(/C=C/c2c(-c3ccccc3)nc3sccn23)ncn1 with Vascular endothelial growth factor receptor 1 (Homo sapiens, UniProt P17948).
> 100 µM

* * *

pIC50: recorded values
# Assayed System: Vascular endothelial growth factor receptor 2 (Homo sapiens, UniProt P35968)
# Sequence (P35968 whole entry): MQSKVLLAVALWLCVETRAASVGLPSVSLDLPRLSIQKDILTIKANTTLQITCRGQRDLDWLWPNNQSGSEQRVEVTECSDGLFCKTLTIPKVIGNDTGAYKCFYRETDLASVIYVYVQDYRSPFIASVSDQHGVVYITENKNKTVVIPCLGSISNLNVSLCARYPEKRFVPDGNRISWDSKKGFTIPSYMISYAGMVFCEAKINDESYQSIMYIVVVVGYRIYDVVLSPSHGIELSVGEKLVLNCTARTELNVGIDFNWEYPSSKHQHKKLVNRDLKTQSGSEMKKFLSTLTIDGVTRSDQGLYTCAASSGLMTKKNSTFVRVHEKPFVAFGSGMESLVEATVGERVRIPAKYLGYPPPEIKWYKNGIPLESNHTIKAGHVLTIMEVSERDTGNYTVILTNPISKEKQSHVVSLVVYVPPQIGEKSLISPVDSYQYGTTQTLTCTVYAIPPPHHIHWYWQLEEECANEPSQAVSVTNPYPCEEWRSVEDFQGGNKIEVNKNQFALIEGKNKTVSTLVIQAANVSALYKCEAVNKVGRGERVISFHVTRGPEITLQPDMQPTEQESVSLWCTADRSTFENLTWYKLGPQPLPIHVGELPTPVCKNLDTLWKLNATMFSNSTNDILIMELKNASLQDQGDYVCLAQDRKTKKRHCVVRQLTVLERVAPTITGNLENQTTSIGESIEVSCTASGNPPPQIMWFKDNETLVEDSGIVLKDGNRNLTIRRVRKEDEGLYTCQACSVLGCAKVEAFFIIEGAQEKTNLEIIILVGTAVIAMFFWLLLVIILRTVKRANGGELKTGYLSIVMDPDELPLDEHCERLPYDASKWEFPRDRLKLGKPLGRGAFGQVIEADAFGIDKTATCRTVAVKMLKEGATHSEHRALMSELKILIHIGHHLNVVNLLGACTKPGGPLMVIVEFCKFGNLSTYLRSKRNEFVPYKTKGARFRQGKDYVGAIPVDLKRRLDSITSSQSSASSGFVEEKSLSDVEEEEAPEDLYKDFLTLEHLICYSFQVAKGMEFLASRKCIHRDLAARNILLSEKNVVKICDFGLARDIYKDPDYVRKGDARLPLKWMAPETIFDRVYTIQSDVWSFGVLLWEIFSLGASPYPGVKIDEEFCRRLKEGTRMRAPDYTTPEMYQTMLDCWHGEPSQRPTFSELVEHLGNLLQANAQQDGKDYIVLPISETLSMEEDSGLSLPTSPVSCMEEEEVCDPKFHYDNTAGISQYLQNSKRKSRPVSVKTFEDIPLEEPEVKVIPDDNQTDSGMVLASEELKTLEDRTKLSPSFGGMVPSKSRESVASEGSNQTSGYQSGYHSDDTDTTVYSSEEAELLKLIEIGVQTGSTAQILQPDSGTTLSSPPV
# Assay Summary: Inhibition of recombinant KDR expressed in baculovirus-Sf21 system
Answer as the number alone; pIC50 is minus log10 of concentration in mol/L.

Please review the following examples before continuing.
1) Cn1cnc(-c2ccccc2)c1/C=C/c1ccnc(N)n1 :: 5.49
2) Cn1cnc(-c2ccccc2)c1C#Cc1ccnc(N)n1 :: 5.54
3) Nc1nccc(/C=C/c2c(-c3ccccc3)ncn2CCN2CCCC2)n1 :: 4.49
4) Nc1nccc(/C=C/c2[nH]cnc2-c2ccccc2)n1 :: 5.01
5) CC(=O)Nc1nccc(/C=C/c2c(-c3ccccc3)nc3sccn23)n1 :: 5.35
6) Nc1nccc(/C=C/c2c(-c3ccccc3)nc3ccccn23)n1 :: 4.89
7) C(=C\c1c(-c2ccccc2)nc2sccn12)/c1ccncn1 :: 4.11

Now let's try a different one.
State measured pIC50 of the molecule Cc1nc2sccn2c1/C=C/c1ccnc(N)n1 with Vascular endothelial growth factor receptor 2 (Homo sapiens, UniProt P35968).
4.15

Source: ChEMBL document CHEMBL1156614
